Origin of the recorded values: patent US20240043507A1

target: T1, SARS-CoV-2 receptor binding domain (RBD), native (SARS-CoV-2, UniProt P0DTC2 330-532); assay: BLI, Fab and RBD
T1 construct: range 330-532
pKd reference
The scale used: pKd is minus the common logarithm of the concentration in molar units.

Examples with answers:
Fab 58 (Fab, V domains shown) VH: QVQLVESGGGLVQPGRSLRLSCAASGFTFDDYAMHWVRQPPGKGLEWVSGVSWNSGTIGYADSVKGRFIISRDNAKNSLYLQMNSLKAEDTALYYCAREVGGTFGVLISREGGLDYWGQGTLVTVSS VL: SYELTQPPSVSVAPGQTARITCGGNTIGSKSVHWYQQRPGQAPVLVVYDDSDRPSGIPERFSGSNSGNTATLTISRVEAGDEADYYCQVWDSSSDRVVFGGGTKLTVL :: 8.47
Fab 158 (Fab, V domains shown) VH: EVQLLESGGDLIQPGGSLRLSCAASGVTVSSNYMSWVRQAPGKGLEWVSIIYPGGSTFYADSVKGRFTISRDNSKNTLYLQMHSLRAEDTAVYYCARDLGSGDMDVWGKGTTVTVSS VL: DIVMTQSPSFLSASVGDRVTITCRASQGISSYLAWYQQKPGKAPKLLIQAASTLQSGVPSRFSGSGSGTEFTLTISSLQPEDFATYYCQQLNSYRYTFGQGTKVEIK :: 9.15
Fab 222 (Fab, V domains shown, Fab) VH: EVQLVESGGGLIQPGGSLRLSCAASGLTVSSNYMSWVRQAPGKGLEWVSVIYSGGSTFYADSVKGRFTISRDNSKNTLYLQMNSLGAEDTAVYYCARGEGSPGNWFDPWGQGTLVTVSS VL: DVVMTQSPGTLSLSPGERATLSCRASQSVPSSYLAWYQQKPGQAPRLLIYGASTRATGIPDRFSGSGSGTDFTLTISRLEPEDFAVYYCQHYDTSPRFGGGTKVDIK :: 8.52

Now for a further binder.
Prompt: Tell me pKd reported for Fab 318 (Fab, V domains shown) VH: QVQLVQSGPEVKKPGTSVKVSCKASGFTLTSSAMQWVRQARGQRLEWIGWIVVGSGNTNYAQKFQERVTITRDMSTSTAYMELSSLRSEDTAVYYCAAGRGYNSDFDYWGQGTLVTVSS VL: AIRMTQSPGTLSLSPGERATLSCRASQSVSSSYLAWYQQRPGQAPRLLIYGTSSRATGIPDRFSGSGSGTDFTLTISRLEPEDFAVYYCQQYGYSVYTFGQGTKVDIK
Completion: 8.12
